The values you see were collected from PubChem BioAssay (NCATS).

Assay: High-throughput drug toxicity screening in the BPDCN cell line Gen2.2 (AID 1224824);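 further: cells exposed to compounds for 48 h before reading; 100% = DMSO and 0% = bortezomib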
Conditions: Gen2.2 BPDCN cells; at 45.8 µM (top of the series) unless noted
Quantity: cell viability, % of control (lower = more cytotoxic) (%)

Molecule	Value units	Reported result
COC(=O)Nc1ccc(-c2nc(N3CCOCC3)c3cnn(C4CCN(Cc5cccnc5)CC4)c3n2)cc1	%	4.27
COc1ccc(-c2cc3c(C)nc(N)nc3n(C3CCC(OCCO)CC3)c2=O)cn1 (centres undefined)	%	9.04
CCN(CC)CCNC(=O)c1ccc2nc(-c3ccccc3)c(-c3ccc(CN4CCC(n5c(=O)[nH]c6ccccc65)CC4)cc3)nc2c1	%	1.68
Cc1c(CN2CCN(S(C)(=O)=O)CC2)sc2c(N3CCOCC3)nc(-c3cnc(N)nc3)nc12	%	16.1
CC(C)c1noc(N2CCC(COc3ccc(-c4ccc(S(C)(=O)=O)cc4)nc3)CC2)n1	%	87.9
CN[C@H]1CCc2cc(OC)c(OC)c(OC)c2-c2ccc(OC)c(=O)cc21	%	24.2
Cc1cnc(Nc2ccc(F)cc2Cl)nc1-c1c[nH]c(C(=O)N[C@H](CO)c2cccc(Cl)c2)c1	%	4.9
CCCCN1CCC(CNC(=O)c2c3n(c4ccccc24)CCCO3)CC1	%	110
O=C(NC1CCNCC1)c1[nH]ncc1NC(=O)c1c(Cl)cccc1Cl	%	5.14
